meta.source: patent US20100040606A1

Target: T1, soluble recombinant G protein (amino acids 66-292 of the 18537 strain sequence) (RSV strain 18537 (subtype B), UniProt P20896 66-292)
T1 construct: also called G(B); recombinant protein G
T1 sequence: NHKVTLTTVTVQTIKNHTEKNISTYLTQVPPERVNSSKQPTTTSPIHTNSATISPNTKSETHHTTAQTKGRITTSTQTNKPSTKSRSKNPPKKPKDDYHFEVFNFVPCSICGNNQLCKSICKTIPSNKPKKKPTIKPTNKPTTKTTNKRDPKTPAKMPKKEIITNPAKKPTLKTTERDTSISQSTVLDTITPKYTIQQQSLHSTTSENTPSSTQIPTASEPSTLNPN
Assay: SPR (Biacore 3000), Fab over immobilised recombinant antigen;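 note: antigen immobilised on CM5 chip at very low density (about 50 RU), rate constants fitted globally with a 1:1 Langmuir model, Fabs obtained by enzymatic cleavage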
measurement_label: t1/2 (h)
Enter your answer as a number in h; do not include the unit.

Exercise: Please give the documented t1/2 of Fab fragment of antibody from clone 816 (Fab, V domains shown) VH: EVQLLESGGGLVQPGGSLRLSCVASGFTFSTYAMTWVRQAPGKGLEWVSVIRASGDSEIYADSVRGRFTISRDNSKNTVFLQMDSLRVEDTAVYFCANIGQRRYCSGDHCYGHFDYWGQGTLVTVSS VL: DIVMTQSPLSLPVTPGEPASISCRSSQSLLHSDGRYYVDWYLQKPGQSPHLLIYLASNRASGVPDRFTGSGSGTDFTLKISRVEAEDVGVYYCMQGLHTPWTFGQGTKVDIKR
Solution: 1.08

Exercise: Answer with the recorded t1/2 for the binder listed here: Fab fragment of antibody from clone 796 (Fab, V domains shown, also called Fab clone 796; 796 (G)) VH: QVQLVESGGGVVQPGRSLRLSCAASGFSFSHFGMHWVRQVPGKGLEWVAIISYDGNNVHYADSVKGRFTISRDNSKNTLFLQMNSLRDDDTGVYYCAKDDVATDLAAYYYFDVWGRGTLVTVSS VL: DIVMTQTPLSLSVTPGQPASISCRSSQSLLRSDGKTFLYWYLQKPGQSPQPLMYEVSSRFSGVPDRFSGSGSGADFTLNISRVETEDVGIYYCMQGLKIRRTFGPGTKVEIKR
Solution: 0.478

Exercise: Output measured t1/2 for this item: Fab fragment of antibody from clone 859 (Fab, V domains shown, also called Fab clone 859; 859 (G)) VH: QVQLVESGGGVVQPGRSLRLSCAVSGSSFSKYGIHWVRQAPGKGLEWVAVISYDGSKKYFTDSVKGRFTIARDNSQNTVFLQMNSLRAEDTAVYYCATGGGVNVTSWSDVEHSSSLGYWGLGTLVTVSS VL: DIQMTQSPSSLSASVGDRVTITCRASQGIRNYLAWYQQKPGKVPKLLVFAASTLQSGVPSRFSGSGSGTDFTLTISSLQPEDVATYYCQRYNSAPLTFGGGTKVEIKR
Solution: 4.17
